- Assay Target: Carbonic anhydrase 2 (Homo sapiens) (UniProt P00918)
- Protocol: CAII small-molecule binders, profiling panel, biochemical, small-molecule microarray, Alexa647-labelled CAII (AID 1122)
- Condition Description: CAII-A647 binding fluorescence, higher = more signal
Parameter: composite z-score

CCCC=C(CCC)[C@@H](NC(=O)c1ccc(C(F)(F)F)cc1)c1ccccc1 | 0.104
COc1cccc([C@@H]2[C@@H](C)CC[C@H]3C(=O)N4[C@H](c5cccc(OC)c5)[C@@H](C)CC[C@H]4C(=O)N23)c1 | 0.35
CC/C=C/C(=O)N(C[C@@H]1CCCO1)[C@@H]1CC(C(=O)NCCO)=C[C@H](Oc2c(I)cc(CO)cc2OC)[C@H]1O | 0.721
COc1ccc([Si](C)(C)[C@@H]2[C@@H](CCO)O[C@]3(C(=O)N(Cc4ccc(NC(=O)[C@H](C)O)cc4)c4ccccc43)[C@H]2C)cc1 | 0.348
CO[C@H]1COC(=O)[C@@H](C)NC(=O)CC=C[C@@H](C)[C@H](OC)COC(=O)CC=C[C@@H]1C | -0.576

Field: next molecule
Return the recorded composite z-score value; entry: C=CC[C@]1(C(=O)O)N=C(c2ccc(OCCCO)cc2)O[C@H]1c1ccccc1 0.758

====

- Protocol: A549 lung cancer cell viability effects, profiling panel, resazurin fluorescence, 24 h, PK04 Diversity Set (AID 1171); note: test concentration not given here
- Condition Description: higher = more signal, called active from +8 up or from −8 down
Criterion: z-score meeting or surpassing 0.01. Met: YES. Not met: NO.

Worked examples follow.
C=CCC(OC(C)=O)[C@@H]1[C@@H](N(Cc2ccc(-c3ccccc3)cc2)C(=O)c2ccc(-c3ccccc3)cc2)c2cc(OCCCO)ccc2N1C(=O)Cc1ccc(OC)cc1 (some centres undefined) | YES
NC(=O)NCC#Cc1ccc2c(c1)[C@]1(C(=O)N2)[C@H](C(N)=O)[C@H]2C(=O)O[C@H](c3ccccc3)[C@H](c3ccccc3)N2[C@@H]1c1ccccc1OCCO | YES
NC(=O)NCC#Cc1ccc2c(c1)[C@]1(C(=O)N2)[C@H](c2ccccc2OCCO)N2[C@H](c3ccccc3)[C@H](c3ccccc3)OC(=O)[C@H]2[C@@H]1C(=O)N1CCN(c2ncccn2)CC1 | YES
Cc1ccc(S(=O)(=O)N2[C@@H](c3ccccc3)C(C(=O)O)=CC[C@H]2c2ccccc2)cc1 | NO

Threshold query (z-score >= 0.01) on C#C[C@H](O[Si](C#Cc1ccccc1)(C(C)C)C(C)C)c1ccccc1 NO

Check the entry COc1ccc([Si](C)(C)[C@H]2[C@H](CC(=O)N3Cc4ccccc4C[C@H]3CO)O[C@@]3(C(=O)N(Cc4cccc(N5CCOC5=O)c4)c4ccccc43)[C@@H]2C)cc1 : does z-score equal or exceed 0.01? NO

====

- Protocol: osmotic lysis modulators in infected erythrocytes, primary screen, PSAC antagonist project, cell-based, P. falciparum Indochina, OD700, 3 h (AID 1156)
- Condition Description: higher = more signal, called active from +8 up or from −8 down
In this section, each of the compounds is paired with its reported z-score.
# answer = number (no unit)

Recorded z-score, per entry:
CCN1C(C)=C(C(=O)OC)[C@@H](c2ccccc2)N2C(=O)[C@@]3(C(=O)OC)O[C@@]12[C@@H]1C(=O)N(C)C(=O)[C@@H]13 | 0.0125
NC(=O)NCC#Cc1ccc2c(c1)[C@]1(C(=O)N2)[C@H](c2ccccc2OCCO)N2[C@H](c3ccccc3)[C@H](c3ccccc3)OC(=O)[C@H]2[C@@H]1C(=O)N1CCN(c2ncccn2)CC1 | 0.229
O=C1C[C@@](C(=O)NC2CC2)(c2ccc([N+](=O)[O-])cc2)[C@@H](c2ccc(CO)cc2I)N1CC12CC3CC(CC(C3)C1)C2 | 1

Attention now shifts to the item below.
Give a short answer stating reported z-score for C=CCC(OC(C)=O)[C@@H]1[C@@H](N(Cc2cc3ccccc3o2)C(=O)Cc2ccc(F)cc2)c2cc(OCCCO)ccc2N1C(=O)c1ccc(-c2ccccc2)cc1 (some centres undefined) . -0.454

====

- Protocol: PSAC antagonists in infected red cells, primary screen, cell-based, P. falciparum Indochina, OD700, 18 h (AID 1157)
- Condition Description: P. falciparum Indochina infected erythrocytes, osmotic lysis OD700, 18 h; higher = more signal, called active from +8 up or from −8 down
Parameter: z-score
Respond with the number and no other words.

C=CC[C@]1(C(=O)OC)N=C(c2ccc(OCCCO)cc2)O[C@H]1c1ccccc1CN=[N+]=[N-] | 0.786

Please turn your attention to the following entry.
Supply measured z-score of C=C[C@H](OC)[C@@H](OC(=O)Nc1ccc(SC)cc1)c1ccc(O)c(F)c1 in your reply. -0.016

====

- Assay Target: Pro-neuregulin-1, membrane-bound isoform (Homo sapiens) (UniProt Q02297)
- Sequence (Q02297 whole entry, looked up, canonical isoform): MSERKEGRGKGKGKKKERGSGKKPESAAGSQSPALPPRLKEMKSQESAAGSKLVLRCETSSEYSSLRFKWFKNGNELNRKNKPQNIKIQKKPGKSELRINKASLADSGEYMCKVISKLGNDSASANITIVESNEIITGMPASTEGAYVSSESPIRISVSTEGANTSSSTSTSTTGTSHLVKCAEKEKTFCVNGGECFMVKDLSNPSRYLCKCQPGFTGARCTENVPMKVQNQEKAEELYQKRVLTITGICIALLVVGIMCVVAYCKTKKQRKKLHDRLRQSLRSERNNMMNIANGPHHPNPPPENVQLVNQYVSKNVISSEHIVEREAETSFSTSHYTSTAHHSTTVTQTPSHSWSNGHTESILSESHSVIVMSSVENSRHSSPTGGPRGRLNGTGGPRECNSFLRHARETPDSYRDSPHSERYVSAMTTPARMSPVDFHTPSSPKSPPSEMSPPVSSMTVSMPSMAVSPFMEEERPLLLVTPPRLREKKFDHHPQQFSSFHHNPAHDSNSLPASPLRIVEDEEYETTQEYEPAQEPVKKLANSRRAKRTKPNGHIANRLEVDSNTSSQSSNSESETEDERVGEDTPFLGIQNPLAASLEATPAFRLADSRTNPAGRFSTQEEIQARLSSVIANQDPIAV
- Protocol: NRG1 binders on small-molecule microarrays, primary screen, psychiatric disease protein project, biochemical, small-molecule microarray, fluorescence 635/667 (AID 1075);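 note: score combines 667 nm spot fluorescence with signal to noise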
- Condition Description: NRG1 binding, 635 nm fluorescence, higher = more signal
Parameter: composite z-score. Scope: all listed entries.
API doc: respond with a numeric literal and nothing else, no unit.

CCN1C(C)=C(C(=O)OC)[C@@H](c2ccccc2)N2C(=O)[C@@]3(C(=O)OC)O[C@@]12[C@@H]1C(=O)N(c2ccccc2)C(=O)[C@@H]13 | 0.75
CC(C)[Si](OCCCNS(=O)(=O)c1ccc(Br)cc1)(C(C)C)C(C)C | 0.344
CC(C)N1CC=CC23O[C@@H]4/C=C\CCCOC(=O)C4[C@H]2C(=O)N(CCO)[C@@H]3C1=O (some centres not stated) | 2.16
CSCC[C@@H]1NC(=O)CC=C[C@@H](C)COC(=O)[C@H](CCSC)NC(=O)CC=C[C@@H](C)COC1=O | -0.283

# lookup: Pro-neuregulin-1, membrane-bound isoform (Homo sapiens) (UniProt Q02297) composite z-score, key = C=C[C@H](OC)[C@@H](OC(=O)Nc1ccc(SC)cc1)c1ccc(O)c(F)c1 0.756

Provide the reported composite z-score (system: Pro-neuregulin-1, membrane-bound isoform (Homo sapiens) (UniProt Q02297)) for CN(C)C(=O)[C@@]1(Cc2ccccc2N=[N+]=[N-])N=C(c2ccc(OCCCO)cc2)O[C@H]1c1ccccc1CN=[N+]=[N-] 1.56

Consider the compound COc1cc2c(cc1OC)CN(C(=O)[C@H]1[C@@H]3C(=O)O[C@@H](c4ccccc4)[C@@H](c4ccccc4)N3[C@@H](c3ccccc3OCCO)[C@]13C(=O)Nc1ccc(C#CC4(O)CCCCCC4)cc13)CC2 tested on Pro-neuregulin-1, membrane-bound isoform (Homo sapiens) (UniProt Q02297); state its composite z-score. 1.76

System Pro-neuregulin-1, membrane-bound isoform (Homo sapiens) (UniProt Q02297). Read-out composite z-score. Item C=C(CCCC)C(=O)CC[C@@H](OC(C)=O)c1ccccc1OCCO . Report value. -0.52

# return composite z-score for O=C(NCc1ccccc1)[C@@]1(Cc2ccccc2)COC(c2ccc(OCCCO)cc2)=N1 , test system: Pro-neuregulin-1, membrane-bound isoform (Homo sapiens) (UniProt Q02297) 1.51

Quote Pro-neuregulin-1, membrane-bound isoform (Homo sapiens) (UniProt Q02297) composite z-score for entry COc1ccc([Si](C)(C)[C@H]2[C@H](CC(=O)N3Cc4ccccc4C[C@H]3CO)O[C@@]3(C(=O)N(Cc4cccc(N5CCOC5=O)c4)c4ccccc43)[C@@H]2C)cc1 . 0.676

Please tell me the measured composite z-score for CCC1=C2CN(Cc3ccccc3Br)[C@@H]([C@@H](O)Cc3ccccc3)C2C=CCC1 (some centres not stated) ; system: Pro-neuregulin-1, membrane-bound isoform (Homo sapiens) (UniProt Q02297). 0.421

Jot down composite z-score (Pro-neuregulin-1, membrane-bound isoform (Homo sapiens) (UniProt Q02297)) of C=CC[C@@]12N=C(c3ccc(OCCCO)cc3)O[C@@H]1c1ccccc1CN(Cc1ccccc1)C2=O . 0.713

// output composite z-score; input CCCNC(=O)[C@@H]1c2ccccc2C(=O)N(Cc2cc(F)cc(C(F)(F)F)c2)[C@H]1c1ccc(CO)cc1 ; system Pro-neuregulin-1, membrane-bound isoform (Homo sapiens) (UniProt Q02297) 1.03

Fetch value of composite z-score on Pro-neuregulin-1, membrane-bound isoform (Homo sapiens) (UniProt Q02297) for COc1cc(CO)cc(I)c1O[C@H]1C=C(C(=O)NCCO)C[C@@H](NCCc2c[nH]c3ccccc23)[C@@H]1O . -0.0224

For Pro-neuregulin-1, membrane-bound isoform (Homo sapiens) (UniProt Q02297), give the measured composite z-score of the entry CCOC(=O)C[C@H]1[C@H](OC(=O)c2cc3ccccc3oc2=O)[C@@H](NC(=O)C2CCCCC2)c2cc(OCCCO)ccc2N1C(=O)c1ccc2ccccc2n1 0.295

State composite z-score on Pro-neuregulin-1, membrane-bound isoform (Homo sapiens) (UniProt Q02297). Entry: COCCOC(=O)N1C(=O)[C@@]2(c3cc(C#CCNC(N)=O)ccc31)[C@H](C(=O)N1CCCCCCC1)[C@H]1C(=O)O[C@H](c3ccccc3)[C@H](c3ccccc3)N1[C@@H]2c1ccccc1OCCO 1.03

Enter recorded composite z-score with Pro-neuregulin-1, membrane-bound isoform (Homo sapiens) (UniProt Q02297) for CC(=O)NCCCC[C@@H]1NC(=O)[C@H]2C[C@@H](C(=O)NCCCCCCN(C)C)[C@@H](c3ccc(O)cc3)N2C1=O here. 1.43

FYI, the data here is from PubChem BioAssay.
